Overview of reported Ratio/FWT across a group of binders:
- SYSTEM: T1, FcRn-p3 fusion protein (human, UniProt P55899 24-297; P61769 21-119)
- T1 construct: baculovirus expressed; coated on ELISA wells; not shown: amino terminal part of bacteriophage p3 protein and CVDE protein
- T1 sequence (P55899 24-297, chain 1 of 2): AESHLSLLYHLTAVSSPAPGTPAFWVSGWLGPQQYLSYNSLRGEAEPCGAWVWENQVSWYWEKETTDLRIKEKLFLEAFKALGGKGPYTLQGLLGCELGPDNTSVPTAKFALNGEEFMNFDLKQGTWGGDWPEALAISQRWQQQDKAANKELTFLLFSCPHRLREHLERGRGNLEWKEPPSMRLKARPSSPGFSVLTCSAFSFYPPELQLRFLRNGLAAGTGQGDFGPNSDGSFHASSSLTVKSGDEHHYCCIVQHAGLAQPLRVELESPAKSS
- T1 sequence (P61769 21-119, chain 2 of 2): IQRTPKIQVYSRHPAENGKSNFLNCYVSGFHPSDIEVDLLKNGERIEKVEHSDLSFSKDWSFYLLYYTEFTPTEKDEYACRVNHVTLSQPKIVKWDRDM
- PROTOCOL DETAILS: phage ELISA pH6 (est.)
Dear colleague, please return just the value in fold, with no unit written.

Please review the entries below; each comes with its answer.
• T3A_34 (other, EU numbering) CPPCPAPELLGGPSVFLFPPKPKDTLMISRTPEVTCVVEDVSHEDPEVKFNWYVDGVEVHNAKTKPREEQYNSTYRVVSVLTVLHQDWLNGKEYKCKVSNKALPAPIEKTISKAKGQPREPQVYTLSPSRDELTKNQVSLTCLVKGFYPSDIVVEWESNGQPENNYKTTPPVLDSDGSFFLYSKLTVDKSRWQQGNVFSCSVMHEALHNHYTQKSLSLSPGK = 4.6
• T5A_51 (other, EU numbering) CPPCPAPELLGGPSVFLFPPKPKDTLMISRTPEVTCVVEDVSHEDPEVKFNWYVDGVEVHNAKTKPREEQYNSTYRVVSVLTVLHQDWLNGKEYKCKVSNKALPAPIEKTISKAKGQPREPQVYTLPPSRDELTKNQVSLTCLVKGFYPSDIVVEWESNGQPENNYKTTPPVLDSDGSLFLYSKLTVDKSRWQQGNVFSCSVMHEALHSHYTQKSLSLSPGK = 9

Next item in the queue.
Find the recorded Ratio/FWT belonging to C3A_43 (other, EU numbering) CPPCPAPELLGGPSVFLFPPKPKDTLMISRTPEVTCVVVDVSHEDPEVKFNWYVDGVEVHNAKTKPREEQYNSTYRVVSVLTVLHQDWLDGKEYKCKVSNKALPAPIEKTISKAKGQPREPQVYTLPPSRDELTKNQVSLTCLVKGFYPSDIAVEWESNGQPENNYKTTPPVLDSDGSFFLYSKLTVDKSGWQQGNVFSCSVMHEALHYHYTQKSLSLSPGK and report it.
8.1

Where these numbers come from: patent USRE46585
